pIC50 values, listed per item
test_system: butyrylcholinesterase (BuChE) from horse serum (Equus caballus, UniProt P81908)
Construct: butyrylcholinesterase (BuChE) from horse serum
Sequence (P81908 whole entry): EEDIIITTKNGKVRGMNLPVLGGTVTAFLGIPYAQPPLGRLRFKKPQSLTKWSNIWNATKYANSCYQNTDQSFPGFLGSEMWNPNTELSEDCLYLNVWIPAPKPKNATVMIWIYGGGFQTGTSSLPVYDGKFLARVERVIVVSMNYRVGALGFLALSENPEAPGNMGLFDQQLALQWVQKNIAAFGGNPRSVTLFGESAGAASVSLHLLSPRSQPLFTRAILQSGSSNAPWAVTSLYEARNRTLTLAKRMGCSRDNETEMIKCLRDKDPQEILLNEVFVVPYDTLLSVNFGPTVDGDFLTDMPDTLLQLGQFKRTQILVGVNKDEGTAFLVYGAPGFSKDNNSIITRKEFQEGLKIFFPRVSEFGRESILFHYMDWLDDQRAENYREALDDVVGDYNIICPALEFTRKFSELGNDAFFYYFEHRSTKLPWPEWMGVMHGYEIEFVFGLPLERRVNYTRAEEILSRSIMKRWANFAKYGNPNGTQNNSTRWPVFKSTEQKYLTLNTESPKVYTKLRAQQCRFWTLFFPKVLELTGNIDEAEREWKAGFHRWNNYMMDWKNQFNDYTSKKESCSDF
experiment_summary: biochemical
condition_context: Ellman's method, 96-well plate, enzyme with compound incubated 20 min at 37 °C, phosphate buffer pH 8.0, three measurements
// returns pIC50 (minus log10 of molar concentration), number only

See these solved cases before continuing.
>>> df
                                   molecule                               test_system  measured_quantity  numeric_result
0  O=C1c2ccccc2C(=O)N1CCN1CCN(C(c2ccccc2)c2ccccc2)CC1 [III]  butyrylcholinesterase (BuChE) from horse serum (Equus caballus, UniProt P81908)              pIC50            4.67
1  O=C1c2ccccc2C(=O)N1CCN1CCN(c2ccc(C(F)(F)F)cc2)CC1 [II]  butyrylcholinesterase (BuChE) from horse serum (Equus caballus, UniProt P81908)              pIC50            4.61
2  O=C1c2ccccc2C(=O)N1CCN1CCc2ccccc2C1 [Compound VI]  butyrylcholinesterase (BuChE) from horse serum (Equus caballus, UniProt P81908)              pIC50            4.28

Prompt: Param item = O=C1c2ccccc2C(=O)N1CCN1CCN(c2ccccc2)CC1 [Compound I] ; retrieve measured pIC50.
Completion: 4.61

Prompt: Same question, O=C1c2ccccc2C(=O)N1CCN1CCN(c2ncccn2)CC1 [IV] this time
Completion: 4.16

====

Dear all, this message contains pIC50 results, target or system acetylcholinesterase (AChE) from electrophorus electricus (Electrophorus electricus).
Interpret pIC50 as the negative base-10 log of the concentration measured in mol/L.

Example entries and their recorded answers appear below.
In [3]: df
Out[3]:
                                  structure  numeric_result
0  O=C1c2ccccc2C(=O)N1CCN1CCN(c2ccc(C(F)(F)F)cc2)CC1            5.64
1             O=C1c2ccccc2C(=O)N1CCN1CCOCC1            4.79
2       O=C1c2ccccc2C(=O)N1CCN1CCc2ccccc2C1            5.94
3  O=C1c2ccccc2C(=O)N1CCN1CCN(C(c2ccccc2)c2ccccc2)CC1            5.71
4   O=C1c2ccccc2C(=O)N1CCN1CCN(c2ncccn2)CC1            5.41

We next turn to a different molecule, shown below.
Prompt: Item under review: O=C1c2ccccc2C(=O)N1CCN1CCN(c2ccccc2)CC1 . Reported pIC50?
Completion: 5.95

====

test_system: butyrylcholinesterase (BuChE) from horse serum (Equus caballus, UniProt P81908)
Construct: butyrylcholinesterase (BuChE) from horse serum; from tissue; host or cells: horse serum
experiment_summary: biochemical
condition_context: ratio of the IC50 values (AChE/BuChE), definition not given
measured_quantity: Selectivity BuChE
The reply should be a number, written without any unit.

Please review the following examples before continuing.
>>> df
                                   compound                               test_system  numeric_result
0  O=C1c2ccccc2C(=O)N1CCN1CCN(c2ncccn2)CC1 [IV]  butyrylcholinesterase (BuChE) from horse serum (Equus caballus, UniProt P81908)            0.06
1  O=C1c2ccccc2C(=O)N1CCN1CCc2ccccc2C1 [Compound VI]  butyrylcholinesterase (BuChE) from horse serum (Equus caballus, UniProt P81908)            0.02
2  O=C1c2ccccc2C(=O)N1CCN1CCN(c2ccccc2)CC1 [Compound I]  butyrylcholinesterase (BuChE) from horse serum (Equus caballus, UniProt P81908)            0.05
3  O=C1c2ccccc2C(=O)N1CCN1CCN(C(c2ccccc2)c2ccccc2)CC1 [III]  butyrylcholinesterase (BuChE) from horse serum (Equus caballus, UniProt P81908)            0.09

Let us examine a further case.
Prompt: Fill in the blank: the reported Selectivity BuChE of O=C1c2ccccc2C(=O)N1CCN1CCN(c2ccc(C(F)(F)F)cc2)CC1 [II] is ____.
Completion: 0.09
